Data origin: patent US10526287B2

In this section we review reported IC50 values for a set of compounds.
molecular target: LSD1 (Homo sapiens); assay: Biochemical assay for LSD1 activity (LSD1 demethylase TR-FRET); conditions: Table 6; biotinylated H3K4me1 peptide, 50 minutes at room temperature, TR-FRET; read-out: LSD1_Pep_TR-FRET_1.0 (IC50 T50)
Where a name gives a salt, the structure may show the parent alone.

1. CC/C(=C\c1ccccc1)[C@@H]1C[C@H]1N[C@H]1CC[C@@H](NCC(C)(C)C#N)CC1 (single isomer, unassigned) [Compound 158, bis(trifluoroacetic acid salt)]; < 100 nM
2. CCC1(NCC2CCNCC2)CC1/C(C)=C/c1ccccc1 (stereo not drawn) [Compound 173, Dihydrochloride]; < 100 nM
3. CC/C(=C\c1ccccc1)[C@@H]1C[C@H]1N[C@H]1CC[C@H](NCC2(CO)COC2)CC1 (single isomer, unassigned) [Compound 161, (trifluoroacetic acid salt)]; < 100 nM

Ask: Suppose we examine the compound C/C(=C\c1ccccc1)[C@@H]1C[C@H]1NC1CCN(Cc2ccc(C(N)=O)cc2)CC1 (racemic) [Compound 137, dihydrochloride] ; what IC50 value has been reported?
Reply: < 100 nM

Ask: Now give it for C/C(=C\c1ccccc1)[C@@H]1C[C@H]1NC1CCN(Cc2ccc[nH]c2=O)CC1 (racemic) [Compound 134, bis(2,2,2-trifluoroacetate)] too.
Reply: < 100 nM

Ask: Now give it for CC/C(=C\c1ccccc1)[C@@H]1C[C@H]1N[C@H]1CC[C@H](NCCOCC(=O)O)CC1 (single isomer, unassigned) [Compound 162, (trifluoroacetic acid salt)] too.
Reply: < 100 nM

Ask: Now give it for CC/C(=C\c1ccccc1)[C@@H]1C[C@H]1NCC1CCN(Cc2ccc(C(=O)O)cc2)CC1 (racemic) [Compound 163, bis trifluoroacetic acid salt] too.
Reply: < 100 nM

Ask: Now give it for CC(=Cc1ccc(C#N)cc1)C1CC1N[C@H]1CC[C@H](N)CC1 (relative stereo) [Compound 132, Dihydrochloride] too.
Reply: > 10000 nM

Ask: Now give it for C/C(=C\c1ccccc1)[C@@H]1C[C@H]1NC1CCN(CCO)CC1 (racemic) [Compound 201, Dihydrochloride] too.
Reply: < 100 nM

Ask: Now give it for CC/C(=C\c1ccccc1)[C@@H]1C[C@H]1N[C@H]1CC[C@H](N)CC1 (racemic) [Compound 169, Dihydrochloride] too.
Reply: < 100 nM

Ask: Now give it for CC/C(=C\c1ccccc1)[C@@H]1C[C@H]1N[C@H]1CC[C@@H](NCc2ccc(C(=O)O)cc2)CC1 (racemic) [Compound 176, Dihydrochloride] too.
Reply: < 100 nM

Ask: Now give it for CC/C(=C\c1ccccc1)[C@@H]1C[C@H]1N[C@H]1CC[C@@H](N)CC1 (racemic) [Compound 168, Dihydrochloride] too.
Reply: < 100 nM
